# Test system: HPPD polypeptides
# EXPERIMENT_NOTES: coupled HPPD activity assay: turnover and residual turnover in crude extracts
# Format: biochemical, Pseudomonas fluorescens
# CONDITION_SET: presence of 100 μM Cmpd. 1; high substrate concentration; changes in absorbance (OD) at 320 nm
PROPERTY_LABEL: Residual turnover
Keep the answer to the number alone.

Fill in: Residual turnover of 27 (protein, mutant HPPD polypeptide) MADLYENPMGLMGFEFIEFASPTPGTLEPIFEIMGFTKVATHRSKNVHLYRQGEINLILNNEPNSIASYFAAEHGPSVCGMAFRVKDSQKAYNRALELGAQPIHIDTGPMELNLPAIKGIGGAPLYLIDRFGEGSSIYDIDFVYLEGVERNPVGAGLKVIDHLTHNVYRGRMVYWANFYEKLFNFREARYFDIKGEYTGLTSKAMSAPDGMIRIPLNEESSKGAGQIEEFLMQFNGEGIQHVAFLTDDLVKTWDALKKIGMRFMTAPADNYYEMLEGRLPDHGEPVDQLQARGILLDGSSVEGDKRLLLQIFSETLMGPVFFEFIQRKGDDGFGPHSFKVLFESIERDQVRRGVLTAD is ___
0.101
